experimentDescription: Canine cassette-dosed pharmacokinetics
Assay type: in vivo, canines (beagles)
measurementContext: beagle, dog, plasma, po, 2 mg/kg, plasma, oral 2 mg/kg each compound, cassette; read-out: Canine Cassette-dosed t1/2 (converted)
Reported half-life is given for each of the following compounds.

>>> experimentalresult("NS(=O)(=O)c1ccc(-n2nc(C(F)(F)F)cc2-c2ccc(Cl)c(Cl)c2)cc1")
"~830 h"
>>> experimentalresult("COc1ccc(-c2cc(C(F)(F)F)nn2-c2ccc(S(N)(=O)=O)cc2)cc1")
"~21 h"

Alright, here's another compound for you.
Incoming: # get_value(readout='half-life', item= COc1ccc(-c2cc(C(F)(F)F)nn2-c2ccc(S(N)(=O)=O)cc2)cc1C )
Outgoing: ~36 h

###

Reported half-life is given for each of the following compounds.
experimentDescription: Canine cassette-dosed pharmacokinetics
Type: in vivo, canines (beagles)
measurementContext: beagle, dog, plasma, po, 2 mg/kg, plasma, oral 2 mg/kg each compound, cassette; read-out: Canine Cassette-dosed t1/2 (converted)

Solved entries (count: 3):
>>> experimentalresult("NS(=O)(=O)c1ccc(-n2nc(C(F)(F)F)cc2-c2ccc(F)cc2)cc1")
"23.8 days"
>>> experimentalresult("NS(=O)(=O)c1ccc(-n2nc(C(F)(F)F)cc2-c2ccc(Cl)cc2)cc1")
"~49.5 days"
>>> experimentalresult("Cc1cc(-c2cc(C(F)(F)F)nn2-c2ccc(S(N)(=O)=O)cc2)ccc1Cl")
"~1.83 days"

Incoming: # get_value(readout='half-life', item= Cc1ccc(-c2cc(C(F)(F)F)nn2-c2ccc(S(N)(=O)=O)cc2)cc1Cl )
Outgoing: 0.708 days
